- target.under.test: ZAP-70 (Homo sapiens, UniProt P43403)
- Sequence (P43403 whole entry): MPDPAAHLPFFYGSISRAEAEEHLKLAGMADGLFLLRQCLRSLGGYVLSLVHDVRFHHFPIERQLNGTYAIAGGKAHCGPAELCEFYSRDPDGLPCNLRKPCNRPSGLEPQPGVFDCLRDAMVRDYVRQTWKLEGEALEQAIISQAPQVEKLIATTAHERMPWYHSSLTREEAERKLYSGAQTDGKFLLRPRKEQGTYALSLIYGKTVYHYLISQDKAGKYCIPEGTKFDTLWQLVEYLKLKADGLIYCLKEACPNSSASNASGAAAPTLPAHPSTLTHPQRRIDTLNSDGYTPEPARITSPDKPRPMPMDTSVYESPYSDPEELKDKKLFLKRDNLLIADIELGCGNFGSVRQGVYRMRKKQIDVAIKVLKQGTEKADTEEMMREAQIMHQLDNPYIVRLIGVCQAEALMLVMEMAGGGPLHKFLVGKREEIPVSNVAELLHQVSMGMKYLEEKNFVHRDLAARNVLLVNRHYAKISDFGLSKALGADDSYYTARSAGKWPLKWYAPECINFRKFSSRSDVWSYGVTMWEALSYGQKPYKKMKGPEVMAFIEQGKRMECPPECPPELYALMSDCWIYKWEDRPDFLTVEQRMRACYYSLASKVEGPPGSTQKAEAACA
- assay.overview: DELFIA assay (ZAP-70 kinase, phosphorylation of biotinylated poly(glu,tyr))
- Type: biochemical
- assay.context: ZAP-70 DELFIA, class symbols; read-out: Activity (IC50 in vitro)
measured.endpoint: IC50

Examples from the recorded data:
Q: Entry O=C(Nc1ccc2cn[nH]c2c1)c1cc(NCc2ccc(C(F)(F)F)cc2)nc2ccc(-c3ccc4c(c3)OCO4)cc12 has what IC50?
Result: > 10 µM

Q: Another compound: O=C(c1cc(NCc2ccc(C(F)(F)F)cc2)nc2ccc(-c3ccc4c(c3)OC(F)(F)O4)cc12)N1CCC[C@H]1CN1CCCC1
Result: < 1 µM

Q: Input O=C(c1cc(NCc2ccc(C(F)(F)F)cc2)nc2ccc(-c3cccc([C@H]4CNCC[C@@H]4O)c3)cc12)N1CCC[C@H]1CN1CCCC1
Result: > 10 µM

Q: Also need CN(CCc1ccccc1)c1cc(C(=O)N2CCC[C@H]2CN2CCCC2)cc(N(C)CCc2ccccc2)n1 , thanks.
Result: 1 to 10 µM

Need IC50 for each of these compounds.
1. N#Cc1ccc(-c2ccc3nc(NCc4ccc5c(c4)CCO5)cc(C(=O)N4CCC[C@H]4CN4CCCC4)c3c2)cc1
2. N#Cc1ccc(-c2ccc3nc(NCCc4cccc(F)c4)cc(C(=O)N4CCC[C@H]4CN4CCCC4)c3c2)cc1
3. O=C(c1cc(N2CCC[C@@H]2CO)nc2ccc(-c3ccc4c(c3)OCO4)cc12)N1CCC[C@H]1CN1CCCC1
4. O=C(Nc1ccc2cn[nH]c2c1)c1cc(NCc2ccccc2)nc2ccc(-c3ccc4c(c3)OCO4)cc12
5. N#Cc1ccc(-c2ccc3nc(N4CCC(c5ccccc5F)C4)cc(C(=O)N4CCC[C@H]4CN4CCCC4)c3c2)cc1 (stereo partly drawn)
6. CN1CCN(c2ccc(Nc3cc(Nc4ccc(N5CCN(C)CC5)cc4)c4cc(-c5ccc6c(c5)OCO6)ccc4n3)cc2)CC1

Result:
1. 1 to 10 µM
2. > 10 µM
3. < 1 µM
4. 1 to 10 µM
5. > 10 µM
6. < 1 µM
